fold difference in affinity vs original values for the binders below.
target: binding partner of C5A (XPA23); test: Biacore, K-off
Answer in fold, number only, no unit symbol.

[[record]]
binder = "C5A (XPA23) VH S54Q (antibody, V domains shown) VH: EVQLLESGGGLVQPGGSLRLSCAASGFTFSKYFMFWVRQAPGKGLEWVSVISPQGGMTRYADSVKGRFTISRDNSKNTLYLQMNSLRAEDTAVYYCARVGYGGNSDYWGQGTLVTVSS VL: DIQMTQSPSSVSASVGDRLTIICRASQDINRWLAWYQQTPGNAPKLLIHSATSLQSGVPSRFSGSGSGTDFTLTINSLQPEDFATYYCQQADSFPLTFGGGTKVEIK"
val = 1.01

[[record]]
binder = "C5A (XPA23) VH F35N (antibody, V domains shown) VH: EVQLLESGGGLVQPGGSLRLSCAASGFTFSKYFMNWVRQAPGKGLEWVSVISPSGGMTRYADSVKGRFTISRDNSKNTLYLQMNSLRAEDTAVYYCARVGYGGNSDYWGQGTLVTVSS VL: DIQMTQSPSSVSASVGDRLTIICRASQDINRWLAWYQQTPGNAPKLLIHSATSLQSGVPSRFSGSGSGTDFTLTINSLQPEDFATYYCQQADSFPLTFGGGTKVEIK"
val = 0.86


Next, consider the following binder.
Using the record for C5A (XPA23) VH F35Y (antibody, V domains shown) VH: EVQLLESGGGLVQPGGSLRLSCAASGFTFSKYFMYWVRQAPGKGLEWVSVISPSGGMTRYADSVKGRFTISRDNSKNTLYLQMNSLRAEDTAVYYCARVGYGGNSDYWGQGTLVTVSS VL: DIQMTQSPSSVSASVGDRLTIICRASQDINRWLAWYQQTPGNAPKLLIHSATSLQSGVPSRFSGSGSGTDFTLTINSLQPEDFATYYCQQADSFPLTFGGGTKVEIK , report its fold difference in affinity vs original.
0.85
